Target: MAST2, Q6P0Q8
Sequence (Q6P0Q8 1099-1202): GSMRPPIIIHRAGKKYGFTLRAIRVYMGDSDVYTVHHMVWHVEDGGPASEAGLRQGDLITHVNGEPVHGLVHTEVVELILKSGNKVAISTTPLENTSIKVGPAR
Assay: holdup assay
Parameters: key: below the threshold = too weak to quantify, mostly under pKd 3.1 to 4
Settings: plain residues with an end cap or a label only (N-terminal biotin on a linker: ado-ado)
measurement.type: pKd
// return a plain number; no unit text

Illustrative cases are given below, each with its answer.
YAEKRMLTEV [KCNA6, P17658] | 5.6
EAVTVESTSL [SLC22A11, Q9NSA0] | 5.9
KLQNPNQSVV [TYRP1, P17643] | 4.7
QRYPGNQTTC [CCL24, O00175] | 4.74
GVHSNDHSVV [LPAR1, Q92633] | 4.12
PAALPESTHM [SLC9A3, P48764] | 5.35

Qu. Please supply the value of reported pKd for the item RGKNRRQSIF [CDK18, Q07002]
Ans. 4.34

Measured values drawn from paper PMC9482650 for this set.
